This collection of values is drawn from patent US20250136606A1.

# measurement_target: TRPML3 (Homo sapiens, UniProt Q8TDD5)
# Construct: expressed in transfected cells
# Sequence (Q8TDD5 1-553): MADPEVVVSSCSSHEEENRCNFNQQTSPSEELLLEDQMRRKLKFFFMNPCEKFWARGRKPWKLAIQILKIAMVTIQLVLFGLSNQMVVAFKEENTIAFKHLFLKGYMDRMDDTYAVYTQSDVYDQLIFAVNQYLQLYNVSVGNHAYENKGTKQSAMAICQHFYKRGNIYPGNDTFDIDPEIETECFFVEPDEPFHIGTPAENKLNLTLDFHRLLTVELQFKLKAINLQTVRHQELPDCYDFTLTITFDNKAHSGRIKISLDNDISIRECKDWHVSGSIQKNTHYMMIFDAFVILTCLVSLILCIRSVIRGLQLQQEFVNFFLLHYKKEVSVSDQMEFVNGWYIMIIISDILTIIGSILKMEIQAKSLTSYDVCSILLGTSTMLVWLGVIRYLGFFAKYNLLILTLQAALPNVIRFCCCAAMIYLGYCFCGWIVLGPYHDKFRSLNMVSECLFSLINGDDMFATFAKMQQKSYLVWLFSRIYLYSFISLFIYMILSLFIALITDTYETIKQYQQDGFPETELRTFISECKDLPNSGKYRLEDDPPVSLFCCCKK
# test: Fluorescent TRPML3 assay (performed as for TRPML1, substituting the TRPML3 subtype)
# Assay type: cell-based
pEC50: −log10 of the molar value.
reported_metric: pEC50

>  <structure>
Cc1cn(-c2cccc(F)c2)c2ncnc(N3CCN(C(=O)OC(C)(C)C)C[C@@H]3C)c12

>  <pEC50>
> 7.00

$$$$
>  <structure>
C=CCOC(=O)N(CCC)c1cn(-c2cc(Cl)ccn2)c2ncnc(N3C[C@@H](C)N(C(=O)OC(C)(C)C)C[C@@H]3C)c12

>  <pEC50>
6.30 to 7.00

$$$$
>  <structure>
Cc1ccnc(-n2cc(C(F)(F)F)c3c(N4C[C@@H](C)N(C(=O)OC(C)(C)C)C[C@@H]4C)ncnc32)c1

>  <pEC50>
> 7.00

$$$$
>  <structure>
Cc1cn(-c2cncc(F)c2)c2ncnc(N3C[C@@H](C)N(C(=O)OC(C)(C)C)C[C@@H]3C)c12

>  <pEC50>
6.30 to 7.00

$$$$
>  <structure>
C[C@H]1CN(C(=O)OC(C)(C)C)CCN1c1ncnc2c1c(C1CC1)cn2[C@H]1CCC[C@@H](C#N)C1

>  <pEC50>
5.70 to 6.30

$$$$
>  <structure>
C[C@H]1CN(C(=O)OC(C)(C)C)CCN1c1ncnc2c1c(C(F)(F)F)cn2-c1cccc(Cl)c1

>  <pEC50>
> 7.00

$$$$

Consider the additional compound presented here.
Ask: Dear colleague, I am looking for the recorded pEC50 of the following compound: CC(C)(C)OC(=O)N1CCN(c2ncnc3c2c(C(F)(F)F)cn3-c2cc(C#N)ccn2)CC1
Result: 5.70 to 6.30
